Recorded values, source paper PMC2756588.

Tested Target: Bem1-1, P29366
Sequence (P29366 55-141): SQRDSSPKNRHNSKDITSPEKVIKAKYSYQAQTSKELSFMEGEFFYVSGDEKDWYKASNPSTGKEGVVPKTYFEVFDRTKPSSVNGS
Test Description: SPOT array
Experimental Parameters: median of control spots 4282
As shown below, each of these binders has a reported SPOT intensity value.

Recorded results for 6 binders are shown here.
VPVAPPPPPASLGQS: 4
VNIPSPSSSPPPIPK: 0
ISPPASPPPEFDFSK: 0
QPPLPSSAPPIPTSH: 0
TKFRISLGLPVGAIM: 0
VPPVPLPFGIPPFPM: 0

Now turn to the next binder.
# SPOT intensity lookup, item SSSSTPPTLPPRRIE
0
